Data origin, for the record: patent US20210246166A1

- Target system: T1, Recombinant human MASP1 enzyme (fragment corresponding to amino acids 297-699, C-terminal His Tag) (human, UniProt P48740 297-699)
- T1 sequence: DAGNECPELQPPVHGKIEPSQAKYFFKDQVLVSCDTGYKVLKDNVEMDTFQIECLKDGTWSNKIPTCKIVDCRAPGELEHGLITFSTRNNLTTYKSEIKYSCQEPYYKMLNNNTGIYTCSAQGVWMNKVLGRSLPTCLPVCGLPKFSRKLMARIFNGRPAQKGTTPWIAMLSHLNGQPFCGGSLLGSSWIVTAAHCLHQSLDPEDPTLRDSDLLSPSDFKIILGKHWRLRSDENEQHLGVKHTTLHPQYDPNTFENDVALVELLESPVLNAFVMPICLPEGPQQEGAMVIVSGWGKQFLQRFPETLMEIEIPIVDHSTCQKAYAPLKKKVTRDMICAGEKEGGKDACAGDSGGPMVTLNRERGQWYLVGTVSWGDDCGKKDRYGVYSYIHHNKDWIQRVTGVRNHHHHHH
- Assay overview: cell-based or functional assay
Bridge positions count the residues as written; N and C are the ends. Square brackets hold non-standard residues; d marks the D form. Ends that are not written are not given here. tBuAla = CC(C)(C)C[C@H](N)C(=O)O; Pen = CC(C)(S)[C@H](N)C(=O)O; NMeC = CN[C@@H](CS)C(=O)O; PEG2 = NCCOCCOCCC(=O)O; Aib = CC(C)(N)C(=O)O; Sar = CNCC(=O)O
Attribute: human MASP1 IC50
Your answer should be a plain number; it is taken to be in nM.

[Sar]ICSRS[tBuAla]PPI[Pen]IP[PEG2]-NH2 (disulfide 3-11; N-terminus assumed; SMILES CC[C@H](C)[C@H](NC(=O)CNC)C(=O)N[C@H]1CSSC(C)(C)[C@@H](C(=O)N[C@H](C(=O)N2CCC[C@H]2C(=O)NCCOCCOCCC(N)=O)[C@@H](C)CC)NC(=O)[C@H]([C@@H](C)CC)NC(=O)[C@@H]2CCCN2C(=O)[C@@H]2CCCN2C(=O)[C@H](CC(C)(C)C)NC(=O)[C@H](CO)NC(=O)[C@H](CCCNC(=N)N)NC(=O)[C@H](CO)NC1=O) [((N-Me)G)-IC+SRS-((tBu)A)-PPI-(Pen)+IP-(PEG1(10 atoms))-NH2]: 5.7
ICSRS[tBuAla]PPI[NMeC]IPD-NH2 (disulfide 2-10; N-terminus assumed; SMILES CC[C@H](C)[C@H](N)C(=O)N[C@H]1CSSC[C@@H](C(=O)N[C@H](C(=O)N2CCC[C@H]2C(=O)N[C@@H](CC(=O)O)C(N)=O)[C@@H](C)CC)N(C)C(=O)[C@H]([C@@H](C)CC)NC(=O)[C@@H]2CCCN2C(=O)[C@@H]2CCCN2C(=O)[C@H](CC(C)(C)C)NC(=O)[C@H](CO)NC(=O)[C@H](CCCNC(=N)N)NC(=O)[C@H](CO)NC1=O) [IC+SRS-((tBu)A)-PP-I-((N-Me)C)+IPD-NH2]: 10
GICSRSLPPICI[Aib]D-OH (disulfide 3-11; N-terminus assumed; SMILES CC[C@H](C)[C@H](NC(=O)CN)C(=O)N[C@H]1CSSC[C@@H](C(=O)N[C@H](C(=O)NC(C)(C)C(=O)N[C@@H](CC(=O)O)C(=O)O)[C@@H](C)CC)NC(=O)[C@H]([C@@H](C)CC)NC(=O)[C@@H]2CCCN2C(=O)[C@@H]2CCCN2C(=O)[C@H](CC(C)C)NC(=O)[C@H](CO)NC(=O)[C@H](CCCNC(=N)N)NC(=O)[C@H](CO)NC1=O) [GIC+SRSLPPIC+I-(Aib)-D-OH]: 16

Now examine the next entry.
Can you share its human MASP1 IC50? I mean this binder: [Sar]ICTRSLPPICIPD-OH (disulfide 3-11; N-terminus assumed; SMILES CC[C@H](C)[C@H](NC(=O)CNC)C(=O)N[C@H]1CSSC[C@@H](C(=O)N[C@H](C(=O)N2CCC[C@H]2C(=O)N[C@@H](CC(=O)O)C(=O)O)[C@@H](C)CC)NC(=O)[C@H]([C@@H](C)CC)NC(=O)[C@@H]2CCCN2C(=O)[C@@H]2CCCN2C(=O)[C@H](CC(C)C)NC(=O)[C@H](CO)NC(=O)[C@H](CCCNC(=N)N)NC(=O)[C@H]([C@@H](C)O)NC1=O) [((N-Me)G)-IC+TRSLPPIC+IPD-OH] 16
